Numbers sourced from PubChem BioAssay AID248.

Quick reference for T/C among some compounds
test system: L1210 leukemia ip in BDF1 mice, survival T/C; assay: NCI In Vivo Anticancer Drug Screen. Data for tumor model L1210 Leukemia (intraperitoneal) in B6D2F1 (BDF1) mice; settings: endpoint: mean survival time; dose: 200.0 mg/kg/injection; schedule: Q01DX009 (ip); vehicle: saline with Tween-80; higher = longer survival
Inconclusive results and toxic doses are left out.

Past entries and their recorded results:
> print(dat)
                                   compound  endpoint              val
1         OCCN1CCC2(CC1)SSC1(CCN(CCO)CC1)S2       T/C  93 % of control
2                         CC(C)(C)Sc1cccnc1       T/C  98 % of control
3       Cc1ccc(S(=O)(=O)OC2CS(=O)(=O)C2)cc1       T/C  95 % of control
4            O=C(/C=C\c1ccc(Cl)cc1)c1ccccc1       T/C  91 % of control
5  COc1cc(OC)c(C(=O)c2ccccc2[N+](=O)[O-])c(OC)c1       T/C  92 % of control
6    COC(=O)c1ccccc1NC(=O)Nc1ccccc1C(F)(F)F       T/C  89 % of control

Task: What is its T/C for L1210 leukemia ip in BDF1 mice, survival T/C? Entry: `C=C(Br)CNC(=O)C(=O)OCC`
Output: 97 % of control

Task: Now try `COc1ccc(NC2=NCCS2)cc1` .
Output: 96 % of control

Task: Now try `CS(=O)(=O)c1ccc(N)cc1` .
Output: 92 % of control

Task: Now try CC(=O)OC1CCC2(C)C(=CCC3C2CCC2(C)C(OC(=O)c4ccccc4)CCC32)C1 (configuration not stated) .
Output: 110 % of control

Task: Now try `c1c[nH]c(N=Nc2ccc(-c3ccc(N=Nc4ncc[nH]4)cc3)cc2)n1` .
Output: 90 % of control

Task: Now try COc1cc2c(cc1OC)CN1CCc3cc(OC)c(OC)cc3C1C2 (configuration not stated) .
Output: 93 % of control

* * *

Tested on: L1210 leukemia ip in BDF1 mice, survival T/C
Assay: NCI In Vivo Anticancer Drug Screen. Data for tumor model L1210 Leukemia (intraperitoneal) in B6D2F1 (BDF1) mice
Settings: endpoint: mean survival time; dose: 100.0 mg/kg/injection; schedule: Q04DX002 (ip); vehicle: saline with Tween-80; higher = longer survival
Description: The antitumor activity of compounds was measured in mice bearing transplantable tumors. Survival or tumor size were measured and the results are expressed as the measurement made in the treated group (T) divided by the measurement made in the vehicle treated control group (C). The tumor model used in this assay is L1210 Leukemia (intraperitoneal) in B6D2F1 (BDF1) mice
Inconclusive results and toxic doses are left out.
Quick reference for T/C among some molecules

Past entries and their recorded results:
> print(dat)
                    molecule               val
1     CCS(=O)(=O)N1CCC(C)CC1   96 % of control
2  O=C(O)Cn1c(=O)ccc2ccccc21   91 % of control
3  C=C(OCC)P(=O)(OCCCC)OCCCC  100 % of control

Task: For the molecule `CC(=O)[O][Sb]([O]C(C)=O)([c]1ccccc1)([c]1ccccc1)[c]1ccccc1` , what T/C is on record?
Output: 96 % of control

Task: Now try CCOC(=N)C(O)c1ccccc1 (configuration not stated) .
Output: 111 % of control

Task: Now try `CN(C)/C=N\N(c1ccccc1)c1ccccc1` .
Output: 106 % of control

Task: Now try `C/C(=C\C(C)(C)C(C)(C)C)C(C)(C)C` .
Output: 95 % of control

Task: Now try `COc1ccc(S(=O)(=O)F)cc1C(=O)O` .
Output: 90 % of control

Task: Now try `CCCCCCCCCCCc1cccc2ccccc12` .
Output: 89 % of control

* * *

Quick reference for T/C among some molecules
Test system: L1210 leukemia ip in BDF1 mice, survival T/C
Test: NCI In Vivo Anticancer Drug Screen. Data for tumor model L1210 Leukemia (intraperitoneal) in B6D2F1 (BDF1) mice
Settings: endpoint: mean survival time; dose: 100.0 mg/kg/injection; schedule: Q01DX009 (ip); vehicle: Klucel (hydroxypropylcellulose) (HPC); higher = longer survival
Protocol: The antitumor activity of compounds was measured in mice bearing transplantable tumors. Survival or tumor size were measured and the results are expressed as the measurement made in the treated group (T) divided by the measurement made in the vehicle treated control group (C). The tumor model used in this assay is L1210 Leukemia (intraperitoneal) in B6D2F1 (BDF1) mice
Inconclusive results and toxic doses are left out.

Past entries and their recorded results:
molecule	tgt	T/C
CN(Cc1ccccc1Cl)C(=S)NC1CCCCC1	L1210 leukemia ip in BDF1 mice, survival T/C	92 % of control
COC(=O)c1ccccc1NN=Nc1ccccc1[N+](=O)[O-]	L1210 leukemia ip in BDF1 mice, survival T/C	93 % of control
COc1ccc(NC(=O)Nc2ccc(SC)cc2)c(Cl)c1	L1210 leukemia ip in BDF1 mice, survival T/C	107 % of control
C=C(Br)CN(CCCC)C(C)=O	L1210 leukemia ip in BDF1 mice, survival T/C	100 % of control
CSc1ccc(NC(=O)SCc2ccccc2)cc1	L1210 leukemia ip in BDF1 mice, survival T/C	97 % of control

Task: For the molecule `CCSc1nc(N)c(C#N)cc1C#N` , what T/C is on record?
Output: 105 % of control

Task: Now try `O=C1OC(c2cccc([N+](=O)[O-])c2)=N/C1=C\c1cccc2ccccc12` .
Output: 94 % of control

Task: Now try `O=C1c2ccccc2C(=O)N1c1cccc([N+](=O)[O-])c1` .
Output: 90 % of control

Task: Now try `O=COCCc1ccccc1` .
Output: 102 % of control

Task: Now try `O=C1C=C(NCCc2cnc[nH]2)c2ccccc2C1=O` .
Output: 103 % of control

Task: Now try `COc1ccc(Cl)cc1NC(=O)Nc1cc(Cl)c(Cl)cc1C` .
Output: 102 % of control

Task: Now try `Cc1ccc(C)c(CN(C)C)c1O` .
Output: 89 % of control

* * *

Quick reference for T/C among some compounds
system: L1210 leukemia ip in BDF1 mice, survival T/C; test: NCI In Vivo Anticancer Drug Screen. Data for tumor model L1210 Leukemia (intraperitoneal) in B6D2F1 (BDF1) mice; details: endpoint: mean survival time; dose: 12.5 mg/kg/injection; schedule: Q01DX009 (ip); vehicle: saline; higher = longer survival
Toxic doses and inconclusive results are not listed.

Past entries and their recorded results:
> print(dat)
                                   compound  endpoint               val
1  CN(C)CCC1(c2ccccc2)C=Cc2ccccc21 (centres undefined)       T/C  101 % of control
2                     CC[As](=O)(O)c1ccccc1       T/C   89 % of control
3  NCCNc1ncnc2c1ncn2C1OC(CO)C(O)C1O (centres undefined)       T/C  111 % of control

Consider the additional compound presented here.
Task: For the compound O=C1NC(c2ccccc2)C(=O)N1CCN(CCCl)CCCl (centres undefined) , what T/C is on record?
Output: 100 % of control

* * *

tested on: L1210 leukemia ip in BDF1 mice, survival T/C; test: NCI In Vivo Anticancer Drug Screen. Data for tumor model L1210 Leukemia (intraperitoneal) in B6D2F1 (BDF1) mice; details: endpoint: mean survival time; dose: 50.0 mg/kg/injection; schedule: Q04DX003 (ip); vehicle: saline with Tween-80; higher = longer survival
Toxic doses and inconclusive results are not listed.
endpoint: T/C

> print(dat)
                                   molecule  endpoint               val
1  CC(=O)OCC1OC(OC2C(COC(C)=O)OC(Sc3ccccc3)C(OC(C)=O)C2OC(C)=O)C(OC(C)=O)C(OC(C)=O)C1OC(C)=O (centres undefined)       T/C   95 % of control
2  CNC(C)(C)C(SSSC(c1ccc(Cl)cc1)C(C)(C)NC)c1ccc(Cl)cc1 (centres undefined)       T/C   96 % of control
3                NC1=C(Cl)C(=O)c2ccccc2C1=O       T/C  101 % of control
4                       O=c1ccnc([Se])[nH]1       T/C  101 % of control
5  Cc1cc(N(CCCOS(C)(=O)=O)CCCOS(C)(=O)=O)ccc1C=Nc1ccc2ccccc2c1       T/C   98 % of control

Task: What is its T/C for L1210 leukemia ip in BDF1 mice, survival T/C? Entry: Cn1cc(C(O)CN2CCCCC2)c2ccccc21 (centres undefined)
Output: 97 % of control

Task: Now try `CCCCCCc1nc2nc(Cl)c(Cl)nc2[nH]1` .
Output: 98 % of control

Task: Now try `N#CSc1nc2ccccc2s1` .
Output: 91 % of control

Task: Now try `CN(CCS)Cc1ccccc1` .
Output: 106 % of control
